- Test system: Neuregulin-1 EGF-like domain
- TEST DESCRIPTION: binders of neuregulin-1 EGF-like domain, primary screen, biochemical, small-molecule microarray, 635 nm fluorescence (AID 1081);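 further: binding of the protein to compounds printed on small-molecule microarray slides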
- ASSAY CONDITIONS: small-molecule microarray binding, higher = more signal
Threshold check on composite z-score: at or above 0.9 gives true, strictly below gives false.

Examples from the recorded data:
State whether the measured composite z-score reaches 0.9, counting equality as reaching it, for `[N-]=[N+]=NCc1ccccc1C[C@]1(C(=O)N2CCOCC2)COC(c2ccc(OCCCO)cc2)=N1`
true

Decide: is the reported value of composite z-score for `COc1ccc([Si](C)(C)[C@@H]2[C@@H](CC(=O)N3Cc4ccccc4C[C@H]3CO)O[C@]3(C(=O)N(Cc4ccc(N5CCC5=O)cc4)c4ccccc43)[C@H]2C)cc1` equal to or greater than 0.9?
false

Could you tell me if the measured composite z-score of `CCOC(=O)C[C@H]1[C@H](OC(=O)c2cc3ccccc3oc2=O)[C@@H](NC(=O)c2ccc3ccccc3c2)c2cc(OCCCO)ccc2N1C(=O)Cc1ccc(OC)cc1` reaches 0.9 or more?
true

Others:
Would you say `CN(C)CCCCCCNC(=O)[C@@H]1C[C@@H]2C(=O)N[C@@H](CCCCN)C(=O)N2[C@@H]1c1ccc(O)cc1` shows composite z-score at minimum 0.9?
true

Has CCOC(=O)C1=CCC(c2ccccc2)N(S(=O)(=O)c2ccc([N+](=O)[O-])cc2)C1 (configuration not stated) a recorded composite z-score greater than or equal to 0.9?
false

Is composite z-score for CCCCCCCCCCC(O)C1C=CC2C(=O)N(C)C(=O)C2N1Nc1cc(OC)c(OC)c(OC)c1 (configuration not stated) at or above 0.9?
false

Quick check: does `CCc1cccc(NC(=O)O[C@H]2[C@H](OC(=O)Nc3ccccc3)[C@H](OC(=O)Nc3ccccc3)[C@@H](OC)O[C@@H]2CO)c1` have composite z-score greater than or equal to 0.9?
true

###

The entries below are paired with their reported z-score.
- TEST DESCRIPTION: osmotic lysis modulators in infected erythrocytes, primary screen, PSAC antagonist project, cell-based, P. falciparum Indochina, OD700, 3 h (AID 1156)
- ASSAY CONDITIONS: higher = more signal, called active from +8 up or from −8 down
Activity calls are given as the source filed them.

I have this molecule here, C=CCC(OC(C)=O)[C@@H]1[C@@H](N(Cc2ccc(-c3ccccc3)cc2)C(=O)c2ccc(C)cc2)c2cc(OCCCO)ccc2N1C(=O)Cc1ccc2ccccc2c1 (stereo not given in full) , and I need its recorded z-score.
-1.45 (inactive)

So what does the record say about z-score for `CCOC(=O)C=Cc1cc(F)ccc1O` ?
0.782 (inactive)

Look at this molecule and give its reported z-score. `[N-]=[N+]=Nc1ccccc1C[C@]1(C(=O)NCc2ccccc2)COC(c2ccc(OCCCO)cc2)=N1`
3.25 (inactive)

Recorded z-score of `C[C@]1(C(=O)NCC(F)(F)F)c2ccccc2C(=O)N(Cc2ccccc2)[C@H]1c1ccc(CO)cc1` , please.
-0.201 (inactive)

---
Query: z-score; subject: C=CCC(OC(C)=O)[C@@H]1[C@@H](N(Cc2cccc3ccccc23)C(=O)c2ccc(-c3ccccc3)cc2)c2cc(OCCCO)ccc2N1C(=O)c1ccc(-c2ccccc2)cc1 (stereo not given in full)
-0.942 (inactive)

Return reported z-score; argument: `CC(C)C(=C=CC[C@@H](O)c1cccc(OCCO)c1)C[C@@H](O)COCc1ccccc1`
1.76 (inactive)

What does the data say about its z-score? Entry: `Cc1c(NC(=O)/C(C#N)=C/c2ccccc2Cl)c(=O)n(-c2ccccc2)n1C`
-0.945 (inactive)

Need z-score, item CN1C(=O)C2C(C1=O)C1C=C(CCCO)C2C(C2CC2)N1Cc1cc2c(cc1Br)OCO2 (stereo not given)
0.3 (inactive)

Any idea what its z-score is? The molecule is `Cc1cccc([C@H]2C[C@H]3C(I)=C[C@@H]2C(=O)[C@]32CO2)c1`
0.0129 (inactive)

Value lookup for z-score; key = `COCCCNC(=O)[C@@]1(Sc2ccc(C)cc2)CC(=O)N(C(C)C)[C@@H]1c1ccc(CO)cc1I`
0.349 (inactive)

Which z-score is listed for `COC(=O)C(CC#Cc1ccc2c(c1)[C@]1(C(=O)N2)[C@H](c2ccc(O)cc2)N2[C@H](c3ccccc3)[C@H](c3ccccc3)OC(=O)[C@H]2[C@@H]1C(=O)N1CCCCCCC1)C(=O)OC` ?
-0.677 (inactive)

Need z-score, item COc1ccc(C(O)C2C=CC3C(=O)N(c4ccccc4)C(=O)C3N2Nc2ccc(C(C)C)cc2)c2ccccc12 (stereo not given)
0.155 (inactive)

Would you kindly share the measured z-score for `COCCCNC(=O)[C@@]1(c2ccc([N+](=O)[O-])cc2)CC(=O)N(CC23CC4CC(CC(C4)C2)C3)[C@@H]1c1ccc(CO)cc1I` ?
2.5 (inactive)

Please give the measured z-score for this molecule: `COCCOC(=O)N1C(=O)[C@@]2(c3cc(C#Cc4ccc(OC)cc4)ccc31)[C@H](c1ccc(OCCO)cc1)N1[C@H](c3ccccc3)[C@H](c3ccccc3)OC(=O)[C@H]1[C@@H]2C(=O)Nc1nc2ccccc2s1`
-0.16 (inactive)

Entry `C=C(CCCC)/C(=C/C[C@H](OC(C)=O)c1ccc(OCCO)cc1)c1cc(C(=O)OC)ccc1OC` : reported z-score = ?
2.3 (inactive)

###

- TEST DESCRIPTION: small-molecule microarray binders of probe aCHRDL2, primary screen, biochemical, biotinylated probe, 635/667 nm fluorescence (AID 1100)
- ASSAY CONDITIONS: higher = more signal
Readings of composite z-score for the listed compounds

See these solved cases before continuing.
I am curious: what composite z-score value has been reported for `[N-]=[N+]=Nc1ccccc1C[C@@]1(C(=O)O)N=C(c2ccc(OCCCO)cc2)O[C@@H]1c1ccccc1N=[N+]=[N-]` ?
1.32

Quick one: composite z-score of `[N-]=[N+]=Nc1ccccc1C[C@]1(C(=O)O)N=C(c2ccc(OCCCO)cc2)O[C@H]1c1ccccc1N=[N+]=[N-]` ?
1.12

Give the measured composite z-score of O=C1OCCC/C=C\[C@H]2OC34C=CCN(c5ccc6ccccc6c5)C(=O)[C@H]3N(CCCO)C(=O)[C@@H]4C12 (some centres undefined) .
0.445

// moving on: another record for composite z-score
Looking for the measured composite z-score of `CC(C)C(=C=CC[C@@H](O)c1cccc(OCCO)c1)C[C@@H](O)COCc1ccccc1` , can you help?
-0.118

###

// reported z-score per item
- TEST DESCRIPTION: osmotic lysis modulators in infected erythrocytes, primary screen, PSAC antagonist project, cell-based, P. falciparum Indochina, OD700, 3 h (AID 1156)
- ASSAY CONDITIONS: higher = more signal, called active from +8 up or from −8 down
Answer using only a numeral; do not append any unit.

Answered examples (2):
Name the reported z-score value associated with the compound O=C1C2C=CC(C(O)c3ccc(I)cc3)N(Nc3ccccc3)C2C(=O)N1c1ccccc1 (stereo not given)
-0.166

I would be grateful if you could share the reported z-score for `COc1ccc([Si](C)(C)[C@H]2[C@H](CCO)O[C@@]3(C(=O)N(Cc4ccc(N5C(=O)c6ccccc6Oc6ccccc65)cc4)c4ccccc43)[C@@H]2C)cc1` .
-1.44

Others:
Tell me the measured z-score of CC1(C)C(=O)C(c2ccccc2)=C2CN3C(=O)N(CCc4ccccc4)C(=O)C3(Cc3ccc(F)cc3)C=C21 (stereo not given) , please.
1.8

Can you share its z-score? I mean this compound: `COCC(=C=CC[C@@H](O)c1cccc(OCCO)c1)CCO`
0.691

Param item = C=CCC(OC(C)=O)[C@@H]1[C@@H](N(Cc2cccc3ccccc23)C(=O)c2cccc3ccccc23)c2cc(OCCCO)ccc2N1C(=O)c1ccc2ccccc2c1 (stereo not given in full) ; retrieve measured z-score.
1.41

So what's the measured z-score for this one? `CC(C)CNC(=O)[C@@H]1c2ccccc2C(=O)N(C2CCCCC2)[C@H]1c1ccc(CO)cc1`
0.472

Which z-score reading was recorded for the compound CC(C)C[C@@H]1NC(=O)CNC(=O)[C@@]23C(=O)N[C@@H](Cc4ccccc4)C2[C@H](C)[C@@]2(C)O[C@H]2C3/C=C/C/C=C\CNC1=O (stereo not given in full) ?
0.183

Dear colleague, I am looking for the recorded z-score of the following compound: COc1cc(NN2C(C(O)c3ccc(I)cc3)C=CC3C(=O)N(c4ccccc4)C(=O)C32)cc(OC)c1OC (stereo not given)
0.481

Which z-score is reported for this compound? `C=C[C@@H](OC)[C@H](OC(=O)Nc1ccc(SC)cc1)c1ccc(OCCO)cc1`
2.11

So what's the measured z-score for this one? O=C1OCCC/C=C\[C@H]2OC34C=CCN(c5ccc6ccccc6c5)C(=O)[C@H]3N(CCCO)C(=O)[C@@H]4C12 (stereo not given in full)
-0.276
